Assay: Plasmodium falciparum growth inhibition, primary screen, strain 3D7, DAPI fluorescence, 100 nL (AID 1184);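 further: parasites grown inside human red blood cells in medium with human serum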
Conditions: P. falciparum 3D7 growth, 3 d, higher = more signal
# z-score values compiled below
Please respond with just the number, no unit label.

What z-score value was documented for this compound, CCCC=C(CCC)[C@@H](NS(=O)(=O)c1ccc(-c2ccccc2)cc1)c1ccc(C(=O)OC)cc1 ?
-1.37

What z-score value was documented for this compound, O=C(NCC(O)CO)[C@]1(Cc2ccccc2)N=C(c2ccc(OCCCO)cc2)O[C@@H]1c1ccccc1 (stereo partly drawn) ?
-1.62

What z-score value was documented for this compound, CC(C)=C1C(=O)C(c2ccccc2)=C2CN3C(=O)N(CCc4ccccc4)C(=O)[C@]3(Cc3ccccc3)[C@H]21 ?
-0.774

What z-score value was documented for this compound, COCCOC(=O)N1C(=O)[C@@]2(c3cc(C#CCC(C(=O)OC)C(=O)OC)ccc31)[C@H](c1ccccc1OCCO)N1[C@H](c3ccccc3)[C@H](c3ccccc3)OC(=O)[C@H]1[C@@H]2C(=O)N1CCCCCCC1 ?
-1.97

What z-score value was documented for this compound, COC(=O)[C@H]1[C@@H]2COc3ccccc3[C@H]2N[C@H]1C(=O)OC ?
0.535
